target: purified recombinant HIV-1 reverse transcriptase (Human immunodeficiency virus type 1 group M subtype B, UniProt P04585); construct: purified recombinant HIV-1 reverse transcriptase (RT, EC, 2.7.7.49); assay: Inhibition of HIV-1 reverse transcriptase enzyme ([3H]-Flashplate enzyme assay, 384-well); settings: recombinant HIV-1 RT expressed in Escherichia Coli; 5% final DMSO
# key: entry, value: pIC50
Quick note: pIC50 means taking -log10 of the concentration in moles per liter.

Cc1nc(C2CC2)c(Sc2cc(C#N)cc(C#N)c2)n1Cc1ccncc1 [Example 40]: 6.87
CCc1nc(CCOC(N)=O)n(C)c1Sc1cc(C#N)cc(C#N)c1 [Example 4]: 6.03
CCn1c(CO)nc(C(F)(F)F)c1Sc1cc(C#N)cc(C#N)c1 [Example 9]: 5.94

Name the recorded pIC50 of the item Cn1c(COC(N)=O)nc(C2CC2)c1Sc1cc(C#N)cc(C#N)c1 [Example 14] in your answer.
6.45

Report pIC50 for CCc1nc(CCOC)n(CC)c1Sc1cc(C#N)cc(C#N)c1 [Example 23]
6.83

Determine from records and report pIC50 for Cc1nc(C(F)(F)F)c(Sc2cc(C#N)cc(C#N)c2)n1C [Example 38]
5.97

Read off the recorded pIC50 for CCc1nc(CCO)n(CC)c1Sc1cc(C#N)cc(C#N)c1 [Example 1]
7.42

---

We begin with a simple list: items and their reported melting point.

Worked examples follow.
CCn1c(CCO)nc(C2CC2)c1Sc1cc(C#N)cc(C#N)c1: 122 to 124 °C
CCc1nc(CN)n(CC)c1Sc1cc(C#N)cc(C#N)c1: 133 to 135 °C
CCn1c(COC)nc(C(C)C)c1Sc1cc(C#N)cc(C#N)c1: 156 to 158 °C
CCn1c(CO)nc(C(C)C)c1Sc1cc(C#N)cc(C#N)c1: 167 to 169 °C
CCc1nc(CO)n(CC)c1Sc1cc(C#N)cc(C#N)c1: 141 to 143 °C

Give a short answer stating reported melting point for CCn1c(COC(N)=O)nc(C(C)C)c1Sc1cc(C#N)cc(C#N)c1 .
174 to 175 °C

Return value of melting point for input CCn1c(CO)nc(C(F)(F)F)c1Sc1cc(C#N)cc(C#N)c1 , no commentary.
184 to 186 °C

Output melting point of CCn1c(COC(N)=O)nc(C2CC2)c1Sc1cc(C#N)cc(C#N)c1
170 to 172 °C
